TEST_NAME: Toxicokinetics from toxicological studies in dogs, daily oral (gavage) administration
Format: in vivo, dog
RUN_CONDITIONS: female, dog, plasma, po, 100 mg/kg, CBD 100 mg/kg oral, Day 1, females, Mean, N=4; read-out: AUC0-inf
Method: Samples were taken from the jugular vein into lithium heparin. Samples were mixed gently by hand then continuously for at least 2 minutes on automatic mixer and placed in a Kryorack until centrifugation, which was carried out at approximately 4° C. as soon as practicable. The resultant plasma was separated under low light conditions, transferred to uniquely labelled clear glass vials, placed in light proof boxes and frozen immediately at <−50° C.
REPORTED_METRIC: AUC0-inf (ng·h/mL)
One number for each entry, in ng·h/mL.

Q. Please look at this compound and report its AUC0-inf: C=C(C)[C@@H]1CCC(C)=C[C@H]1c1c(O)cc(CCCCC)cc1O [CBD, Cannabidiol]
A. 15300
